- Test system: α-amylase
- measurement.notes: Hydrolysis by α-amylase derived from pig pancreas
- Format: in vitro ADME
- setup.conditions: one unit, pH 6.9, 37°C., 18 hours
- Description: The enzymatic reaction with the α-amylase was as follows: Dissolve 10 mg of a substrate in one ml of 50 mM phosphate buffer (pH 6.9), mix the resultant solution with one unit of the α-amylase, and incubate the resultant mixture at 37° C. for 18 hours. The enzymatic reaction with the α-glucosidase was conducted under the same conditions as in the case of α-amylase except that 50 mM acetate buffer (pH 4.0) was used as a buffer. […]
outcome.measure: Saccharide composition of hydrolysate by α-amylase: P II
Numbers only.

{"structure.smiles.string": "OC[C@H]1O[C@H](O[C@H]2O[C@H](CO)[C@@H](O[C@H]3O[C@H](CO)[C@@H](O)[C@H](O)[C@H]3O)[C@H](O)[C@H]2O)[C@H](O)[C@@H](O)[C@@H]1O", "tested.target": "α-amylase", "experimental.value": 0}

Incoming: Query: Saccharide composition of hydrolysate by α-amylase: P II; subject: OC[C@H]1O[C@H](O[C@H]2O[C@H](CO)[C@@H](O[C@H]3O[C@H](CO)[C@@H](O[C@H]4O[C@H](CO)[C@@H](O[C@H]5O[C@H](CO)[C@@H](O[C@H]6O[C@H](CO)[C@@H](O)[C@H](O)[C@H]6O)[C@H](O)[C@H]5O)[C@H](O)[C@H]4O)[C@H](O)[C@H]3O)[C@H](O)[C@H]2O)[C@H](O)[C@@H](O)[C@@H]1O
Outgoing: 3.3

====

- Test system: β-amylase
- measurement.notes: Hydrolysis by β-amylase
- Type: biochemical
outcome.measure: Hydrolysis by β-amylase

{"compound": "OC[C@H]1O[C@H](O[C@H]2O[C@H](CO)[C@@H](O[C@H]3O[C@H](CO)[C@@H](O[C@H]4O[C@H](CO)[C@@H](O)[C@H](O)[C@H]4O)[C@H](O)[C@H]3O)[C@H](O)[C@H]2O)[C@H](O)[C@@H](O)[C@@H]1O [P II, α-maltosyltrehalose]", "outcome.measure": "Hydrolysis by β-amylase", "experimental.value": "not hydrolyzed"}
{"compound": "OC[C@H]1O[C@H](O[C@H]2O[C@H](CO)[C@@H](O[C@H]3O[C@H](CO)[C@@H](O[C@H]4O[C@H](CO)[C@@H](O[C@H]5O[C@H](CO)[C@@H](O[C@H]6O[C@H](CO)[C@@H](O[C@H]7O[C@H](CO)[C@@H](O)[C@H](O)[C@H]7O)[C@H](O)[C@H]6O)[C@H](O)[C@H]5O)[C@H](O)[C@H]4O)[C@H](O)[C@H]3O)[C@H](O)[C@H]2O)[C@H](O)[C@@H](O)[C@@H]1O [P V, α-maltopentaosyltrehalose]", "outcome.measure": "Hydrolysis by β-amylase", "experimental.value": "2 maltose molecules and one P I molecule"}
{"compound": "OC[C@H]1O[C@H](O[C@H]2O[C@H](CO)[C@@H](O[C@H]3O[C@H](CO)[C@@H](O)[C@H](O)[C@H]3O)[C@H](O)[C@H]2O)[C@H](O)[C@@H](O)[C@@H]1O [P I, α-glucosyltrehalose]", "outcome.measure": "Hydrolysis by β-amylase", "experimental.value": "not hydrolyzed"}
